Reference source for all entries: the NIST ThermoML archive (doi:10.1021/je400968v)

Overview of recorded viscosity for various compounds
# assayProcedure: mn = molality of the nth substance listed, in mol/kg
# settings: 303.15 K; 101 kPa; Liquid; Capillary tube (Ostwald / Ubbelohde) method; m1 = 0.3496
quantityName: viscosity (mPa·s)

INSERT INTO assay_data (compound, quantityname, reading) VALUES
  ('Cc1c(N)cccc1N [2,6-diaminotoluene] + CCO', 'viscosity', 1.04),
  ('Cc1ccc(N)cc1N [4-methyl-1,3-benzendiamine] + CCCO', 'viscosity', 1.79),
  ('Cc1ccc(N)cc1N [4-methyl-1,3-benzendiamine] + CCO', 'viscosity', 1.046),
  ('Cc1c(N)cccc1N [2,6-diaminotoluene] + CCCO', 'viscosity', 1.789);

###

# settings: 293.15 K; 101 kPa; Liquid; Capillary tube (Ostwald / Ubbelohde) method
quantityName: viscosity (mPa·s)

INSERT INTO results (smilesstring, resultunit, reading) VALUES
  ('CCCO', 'mPa·s', 2.171),
  ('CCCCO', 'mPa·s', 2.908),
  ('CCO', 'mPa·s', 1.179),
  ('O', 'mPa·s', 1.002);

###

Overview of recorded viscosity for various compounds
# assayProcedure: mn = molality of the nth substance listed, in mol/kg
# settings: 333.15 K; 101 kPa; Liquid; Capillary tube (Ostwald / Ubbelohde) method; m1 = 0.3496
quantityName: viscosity (mPa·s)

INSERT INTO results (compound, resultunit, reading) VALUES
  ('Cc1c(N)cccc1N [2,6-diaminotoluene] + CCCO', 'mPa·s', 0.893),
  ('Cc1ccc(N)cc1N [4-methyl-1,3-benzendiamine] + CCO', 'mPa·s', 0.597),
  ('Cc1ccc(N)cc1N [4-methyl-1,3-benzendiamine] + CCCO', 'mPa·s', 0.893),
  ('Cc1c(N)cccc1N [2,6-diaminotoluene] + CCO', 'mPa·s', 0.595);

###

# assayProcedure: mn = molality of the nth substance listed, in mol/kg
# settings: 293.15 K; 101 kPa; Liquid; Vibrating tube method; m2 = 0
Overview of recorded mass density for various compounds
quantityName: mass density (kg/m3)

INSERT INTO measurements (compound, reading) VALUES
  ('CCCCO [butan-1-ol] + Cc1c(N)cccc1N', 809.69),
  ('CCO [ethanol] + Cc1ccc(N)cc1N', 789.56),
  ('CCCO [propan-1-ol] + Cc1ccc(N)cc1N', 803.86),
  ('CCO [ethanol] + Cc1c(N)cccc1N', 789.56),
  ('CCCCO [butan-1-ol] + Cc1ccc(N)cc1N', 809.69),
  ('CCCO [propan-1-ol] + Cc1c(N)cccc1N', 803.86);

###

Overview of recorded mass density for various molecules
# assayProcedure: mn = molality of the nth substance listed, in mol/kg
# settings: 293.15 K; 101 kPa; Liquid; Vibrating tube method; m1 = 0.3496
quantityName: mass density (kg/m3)

INSERT INTO assay_data (molecule, quantityname, reading) VALUES
  ('Cc1c(N)cccc1N [2,6-diaminotoluene] + CCO', 'mass density', 801.55),
  ('Cc1ccc(N)cc1N [4-methyl-1,3-benzendiamine] + CCCO', 'mass density', 814.24),
  ('Cc1ccc(N)cc1N [4-methyl-1,3-benzendiamine] + CCO', 'mass density', 801.58),
  ('Cc1c(N)cccc1N [2,6-diaminotoluene] + CCCO', 'mass density', 814.83);

###

Overview of recorded viscosity for various compounds
# assayProcedure: mn = molality of the nth substance listed, in mol/kg
# settings: 313.15 K; 101 kPa; Liquid; Capillary tube (Ostwald / Ubbelohde) method; m1 = 0.3496
quantityName: viscosity (mPa·s)

INSERT INTO results (compound, resultunit, reading) VALUES
  ('Cc1ccc(N)cc1N [4-methyl-1,3-benzendiamine] + CCO', 'mPa·s', 0.861),
  ('Cc1ccc(N)cc1N [4-methyl-1,3-benzendiamine] + CCCO', 'mPa·s', 1.401),
  ('Cc1c(N)cccc1N [2,6-diaminotoluene] + CCCO', 'mPa·s', 1.401),
  ('Cc1c(N)cccc1N [2,6-diaminotoluene] + CCO', 'mPa·s', 0.857);

###

Overview of recorded viscosity for various molecules
# settings: 303.15 K; 101 kPa; Liquid; Capillary tube (Ostwald / Ubbelohde) method
Numbers after ± are expanded uncertainties.
quantityName: viscosity

INSERT INTO measurements (smilesstring, quantityname, reading) VALUES
  ('O', 'viscosity', '0.798 ± 0.007 mPa·s'),
  ('CCO', 'viscosity', '0.972 ± 0.006 mPa·s'),
  ('CCCCO', 'viscosity', '2.225 ± 0.015 mPa·s'),
  ('CCCO', 'viscosity', '1.696 ± 0.012 mPa·s');

###

# assayProcedure: mn = molality of the nth substance listed, in mol/kg
# settings: 303.15 K; 101 kPa; Liquid; Vibrating tube method; m2 = 0
Overview of recorded mass density for various compounds
quantityName: mass density (kg/m3)

INSERT INTO measurements (compound, reading) VALUES
  ('CCCO [propan-1-ol] + Cc1c(N)cccc1N', 795.54),
  ('CCCO [propan-1-ol] + Cc1ccc(N)cc1N', 795.54),
  ('CCO [ethanol] + Cc1ccc(N)cc1N', 780.98),
  ('CCCCO [butan-1-ol] + Cc1c(N)cccc1N', 802.04),
  ('CCCCO [butan-1-ol] + Cc1ccc(N)cc1N', 802.04),
  ('CCO [ethanol] + Cc1c(N)cccc1N', 780.98);

###

Overview of recorded mass density for various compounds
# assayProcedure: mn = molality of the nth substance listed, in mol/kg
# settings: 323.15 K; 101 kPa; Liquid; Vibrating tube method; m1 = 0.3496
quantityName: mass density (kg/m3)

INSERT INTO measurements (compound, quantityname, resultunit, reading) VALUES
  ('Cc1ccc(N)cc1N [4-methyl-1,3-benzendiamine] + CCCO', 'mass density', 'kg/m3', 789.4),
  ('Cc1c(N)cccc1N [2,6-diaminotoluene] + CCO', 'mass density', 'kg/m3', 775.18),
  ('Cc1ccc(N)cc1N [4-methyl-1,3-benzendiamine] + CCO', 'mass density', 'kg/m3', 775.13),
  ('Cc1c(N)cccc1N [2,6-diaminotoluene] + CCCO', 'mass density', 'kg/m3', 789.79);

###

# assayProcedure: mn = molality of the nth substance listed, in mol/kg
# settings: 333.15 K; 101 kPa; Liquid; Capillary tube (Ostwald / Ubbelohde) method; m2 = 0
quantityName: viscosity (mPa·s)

INSERT INTO assay_data (compound, resultunit, reading) VALUES
  ('O [water] + Cc1c(N)cccc1N', 'mPa·s', 0.467),
  ('CCCO [propan-1-ol] + Cc1c(N)cccc1N', 'mPa·s', 0.859),
  ('CCCCO [butan-1-ol] + Cc1c(N)cccc1N', 'mPa·s', 1.071),
  ('CCO [ethanol] + Cc1c(N)cccc1N', 'mPa·s', 0.564),
  ('CCCCO [butan-1-ol] + Cc1ccc(N)cc1N', 'mPa·s', 1.071),
  ('CCO [ethanol] + Cc1ccc(N)cc1N', 'mPa·s', 0.564),
  ('CCCO [propan-1-ol] + Cc1ccc(N)cc1N', 'mPa·s', 0.859);

###

# assayProcedure: mn = molality of the nth substance listed, in mol/kg
# settings: 303.15 K; 101 kPa; Liquid; Vibrating tube method; m1 = 0.3496
quantityName: mass density (kg/m3)

INSERT INTO results (compound, reading) VALUES
  ('Cc1ccc(N)cc1N [4-methyl-1,3-benzendiamine] + CCO', 792.88),
  ('Cc1c(N)cccc1N [2,6-diaminotoluene] + CCCO', 806.45),
  ('Cc1c(N)cccc1N [2,6-diaminotoluene] + CCO', 792.9),
  ('Cc1ccc(N)cc1N [4-methyl-1,3-benzendiamine] + CCCO', 805.98);

###

# assayProcedure: mn = molality of the nth substance listed, in mol/kg
# settings: 323.15 K; 101 kPa; Liquid; Vibrating tube method; m2 = 0
± gives the expanded uncertainty stated by the source.
quantityName: mass density

INSERT INTO assay_data (molecule, reading) VALUES
  ('CCCO [propan-1-ol] + Cc1ccc(N)cc1N', '779.01 ± 0.18 kg/m3'),
  ('O [water] + Cc1c(N)cccc1N', '988.04 ± 0.23 kg/m3'),
  ('CCCCO [butan-1-ol] + Cc1ccc(N)cc1N', '786.32 ± 0.17 kg/m3'),
  ('CCCO [propan-1-ol] + Cc1c(N)cccc1N', '779.01 ± 0.18 kg/m3'),
  ('CCO [ethanol] + Cc1c(N)cccc1N', '763.29 ± 0.17 kg/m3'),
  ('CCO [ethanol] + Cc1ccc(N)cc1N', '763.29 ± 0.17 kg/m3'),
  ('O [water] + Cc1ccc(N)cc1N', '988.04 ± 0.23 kg/m3'),
  ('CCCCO [butan-1-ol] + Cc1c(N)cccc1N', '786.32 ± 0.17 kg/m3');
